TARGET_ENTITY: glucocorticoid receptor (Homo sapiens)
Construct: endogenous in cells
Sequence (P04150 whole entry): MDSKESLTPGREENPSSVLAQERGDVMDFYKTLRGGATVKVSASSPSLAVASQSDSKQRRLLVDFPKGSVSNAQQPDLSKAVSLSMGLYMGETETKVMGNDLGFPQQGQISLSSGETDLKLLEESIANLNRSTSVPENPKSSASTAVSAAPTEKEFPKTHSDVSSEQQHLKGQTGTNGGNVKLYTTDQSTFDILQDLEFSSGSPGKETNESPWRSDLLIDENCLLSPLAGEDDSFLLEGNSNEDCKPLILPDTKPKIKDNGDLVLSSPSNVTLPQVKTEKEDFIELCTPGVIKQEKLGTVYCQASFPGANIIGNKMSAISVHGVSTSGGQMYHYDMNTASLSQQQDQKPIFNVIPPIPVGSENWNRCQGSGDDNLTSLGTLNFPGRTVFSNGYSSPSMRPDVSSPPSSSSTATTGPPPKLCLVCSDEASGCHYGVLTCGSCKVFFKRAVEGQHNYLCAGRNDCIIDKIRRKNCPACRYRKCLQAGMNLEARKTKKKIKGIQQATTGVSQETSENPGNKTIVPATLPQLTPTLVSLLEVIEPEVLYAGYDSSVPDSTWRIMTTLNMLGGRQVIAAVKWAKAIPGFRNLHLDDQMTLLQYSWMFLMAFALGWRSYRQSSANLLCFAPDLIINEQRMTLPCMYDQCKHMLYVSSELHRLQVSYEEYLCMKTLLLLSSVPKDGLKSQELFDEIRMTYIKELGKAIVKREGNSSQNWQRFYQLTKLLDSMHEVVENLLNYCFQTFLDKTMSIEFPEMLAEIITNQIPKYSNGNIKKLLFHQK
EXPERIMENT_NOTES: Ligand binding assay (GRBind), 3H-dexamethasone displacement in HeLa cell lysate
MEASUREMENT_SETUP: 3H-DEX tracer
MEASURED_ATTRIBUTE: Ki (nM)
Use nM as the unit, but write only the number.

Answered examples (5):
In [3]: df
Out[3]:
                                   compound  recorded_measurement
0  Cc1ccnc(CC[C@]2(O)CCC3=Cc4c(cnn4-c4ccc(F)cc4)C[C@@]32C2CC2)c1                  1.63
1  NC(=O)c1cccnc1CC[C@]1(O)CCC2=Cc3c(cnn3-c3ccc(F)cc3)C[C@@]21C1CC1                  4.51
2  CC[C@]12Cc3cnn(-c4ccccc4)c3C=C1CC[C@@]2(O)CC(O)c1cc(C#N)ccn1 (stereo partly drawn)                  2.97
3  CC[C@]12Cc3cnn(-c4ccc(F)cc4)c3C=C1CC[C@@]2(O)CCc1cc(C(F)(F)F)ccn1                  2.23
4  NC(=O)c1ccccc1CC[C@]1(O)CCC2=Cc3c(cnn3-c3cccc(F)c3)C[C@@]21C1CC1                  3.22

Record CC[C@]12Cc3cnn(-c4ccc(F)cc4)c3C=C1CC[C@@]2(O)CCc1cccc(OC)c1C(N)=O ; system glucocorticoid receptor (Homo sapiens); Ki = 2.02

Param item: CC[C@]12Cc3cnn(-c4ccc(F)cc4)c3C=C1CC[C@@]2(O)CCc1ccccn1 ; param system: glucocorticoid receptor (Homo sapiens); output Ki: 2.22

Response field Ki (glucocorticoid receptor (Homo sapiens)) for item COc1ccnc(CC[C@]2(O)CCC3=Cc4c(cnn4-c4ccc(F)cc4)C[C@@]32C2CC2)c1C(F)C(N)=O (stereo partly drawn) : 1.82

Log: glucocorticoid receptor (Homo sapiens), compound CC[C@]12Cc3cnn(-c4ccc(F)cc4)c3C=C1CC[C@@]2(O)CCc1ccc(F)cn1 , Ki = 2.52

====

Transactivation A549 Cells Grammer Emax (%) values, listed per item
TARGET_ENTITY: human GR (Homo sapiens, UniProt P04150)
Construct: naturally expresses the human GR; endogenous in cells
Sequence (P04150 whole entry): as above
EXPERIMENT_NOTES: Trans-activation modulation of glucocorticoid receptor (GRAMMER), MMTV-LUC reporter in A549 cells
Type: cell-based
MEASUREMENT_SETUP: A549 cells; Emax relative to the activity obtained with 300 nM dexamethasone
// note: answer is a bare numeric in %

                                   compound  recorded_measurement
0  NC(=O)C(O)c1ccccc1CC[C@]1(O)CCC2=Cc3c(cnn3-c3ccc(F)cc3)C[C@@]21C1CC1 (single isomer, unassigned) [Example 3a]                     7

Short answer for CC[C@]12Cc3cnn(-c4ccccc4)c3C=C1CC[C@@]2(O)CC(O)c1ccccn1 (single isomer, unassigned) [Example 82a] : Transactivation A549 Cells Grammer Emax (%) was 20

Entry CC[C@]12Cc3cnn(-c4ccccc4)c3C=C1CC[C@@]2(O)CC(O)c1ccccn1 (single isomer, unassigned) [Example 67b] , Transactivation A549 Cells Grammer Emax (%) reported as 10

Transactivation A549 Cells Grammer Emax (%) reading for OC(C[C@]1(O)CCC2=Cc3c(cnn3-c3ccc(F)cc3)C[C@@]21C1CC1)c1ccc(F)cn1 (single isomer, unassigned) [Example 79b] : 8

For NC(=O)C(O)c1ccccc1CC[C@]1(O)CCC2=Cc3c(cnn3-c3ccc(F)cc3)C[C@@]21C1CC1 (single isomer, unassigned) [Example 3b] the compound record lists Transactivation A549 Cells Grammer Emax (%) as 19

Sample CC[C@]12Cc3cnn(-c4ccc(F)cc4)c3C=C1CC[C@@]2(O)CC(O)c1ncccc1F (stereo partly drawn) ; Transactivation A549 Cells Grammer Emax (%) observed: 23
